Source listed as ChEMBL document CHEMBL3813676.

molecular target: Cholinesterase (Equus caballus) (UniProt P81908); experiment: Inhibition of equine serum BChE preincubated for 15 mins at 10 uM followed by addition of S-butyrylthiocholine iodide as substrate measured after 30 mins by Ellman's microplate assay
Sequence (P81908 whole entry): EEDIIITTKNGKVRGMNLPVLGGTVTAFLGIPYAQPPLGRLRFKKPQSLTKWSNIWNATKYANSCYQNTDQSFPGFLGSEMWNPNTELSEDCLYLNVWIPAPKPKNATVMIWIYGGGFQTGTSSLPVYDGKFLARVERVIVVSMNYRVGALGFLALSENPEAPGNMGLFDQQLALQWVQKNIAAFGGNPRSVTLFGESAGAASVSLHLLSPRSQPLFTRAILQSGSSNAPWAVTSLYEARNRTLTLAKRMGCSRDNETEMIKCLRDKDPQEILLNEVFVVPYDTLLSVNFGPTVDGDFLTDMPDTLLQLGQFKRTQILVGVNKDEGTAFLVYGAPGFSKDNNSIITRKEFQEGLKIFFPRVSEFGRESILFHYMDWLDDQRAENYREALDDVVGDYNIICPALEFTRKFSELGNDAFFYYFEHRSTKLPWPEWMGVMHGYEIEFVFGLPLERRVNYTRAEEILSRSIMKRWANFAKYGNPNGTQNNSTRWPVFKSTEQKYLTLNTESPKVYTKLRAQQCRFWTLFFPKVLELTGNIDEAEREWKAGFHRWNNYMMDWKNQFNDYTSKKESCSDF
Calls of active or inactive are those of the source. No cut-off for these calls is given here.
property: inhibition

Consider the following illustrative entries.
compound_structure=Cc1cccc(/C=C2\CCCC(C(=O)c3ccccc3)=C2O)c1 system_under_test="Cholinesterase (Equus caballus) (UniProt P81908)" property=inhibition recorded_value=inactive
compound_structure=COc1ccc(/C=C2\CCCC(C(=O)c3ccccc3)=C2O)c(OC)c1OC system_under_test="Cholinesterase (Equus caballus) (UniProt P81908)" property=inhibition recorded_value=inactive
compound_structure=COc1ccc(/C=C2\CCCC(C(=O)c3ccccc3)=C2O)cc1O system_under_test="Cholinesterase (Equus caballus) (UniProt P81908)" property=inhibition recorded_value=inactive
compound_structure=O=C(C1=C(O)/C(=C/c2cccc(OCCN3CCCC3)c2)CCC1)c1ccccc1 system_under_test="Cholinesterase (Equus caballus) (UniProt P81908)" property=inhibition recorded_value=Active
compound_structure=O=C(C1=C(O)/C(=C/c2ccc(OCCN3CCCC3)cc2)CCC1)c1ccccc1 system_under_test="Cholinesterase (Equus caballus) (UniProt P81908)" property=inhibition recorded_value=Active

Identify the reported inhibition for the following entry. "Cc1ccc(/C=C2\CCCC(C(=O)c3ccccc3)=C2O)s1"
inactive

Identify the reported inhibition for the following entry. "O=C(C1=C(O)/C(=C/c2ccc(O)c(Cl)c2)CCC1)c1ccccc1"
Active

====

molecular target: Acetylcholinesterase (Electrophorus electricus) (UniProt O42275); experiment: Inhibition of electric eel AChE preincubated for 15 mins at 10 uM followed by addition of acetylthiocholine iodide as substrate measured after 30 mins by Ellman's microplate assay
Sequence (O42275 24-633 limits assumed): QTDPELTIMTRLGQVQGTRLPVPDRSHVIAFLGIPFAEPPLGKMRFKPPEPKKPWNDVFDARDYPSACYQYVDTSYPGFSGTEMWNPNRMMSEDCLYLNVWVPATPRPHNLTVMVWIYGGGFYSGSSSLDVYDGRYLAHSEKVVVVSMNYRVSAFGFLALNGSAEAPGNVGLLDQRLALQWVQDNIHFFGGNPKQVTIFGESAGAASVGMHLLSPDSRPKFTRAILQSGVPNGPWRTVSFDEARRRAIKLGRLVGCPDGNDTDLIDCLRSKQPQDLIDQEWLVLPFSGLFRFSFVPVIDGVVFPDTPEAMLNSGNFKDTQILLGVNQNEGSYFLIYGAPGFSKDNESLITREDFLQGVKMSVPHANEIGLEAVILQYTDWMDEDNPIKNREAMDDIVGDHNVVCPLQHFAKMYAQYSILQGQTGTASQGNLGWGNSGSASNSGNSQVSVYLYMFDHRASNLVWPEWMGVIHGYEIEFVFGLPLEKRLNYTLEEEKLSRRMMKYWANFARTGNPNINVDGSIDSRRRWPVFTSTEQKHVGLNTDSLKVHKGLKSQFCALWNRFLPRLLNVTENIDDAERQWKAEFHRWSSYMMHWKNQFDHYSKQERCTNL
The source made the active and inactive calls. The calls are words filed in the database; no cut-off is given here.
Answer with one of the outcomes given here: label 1 for active, label 0 for inactive

These recorded examples may help you get a feel for the data.
compound_structure=O=C(C1=C(O)/C(=C/c2ccc(O)cc2)CCC1)c1ccccc1 category_label="label 0"
compound_structure=O=C(C1=C(O)/C(=C/c2ccc(Cl)cc2Cl)CCC1)c1ccccc1 category_label="label 1"
compound_structure=O=C(C1=C(O)/C(=C/c2ccc(Cl)cc2)CCC1)c1ccccc1 category_label="label 1"
compound_structure=COc1ccc(/C=C2\CCCC(C(=O)c3ccccc3)=C2O)cc1OC category_label="label 0"
compound_structure=COc1cc(/C=C2\CCCC(C(=O)c3ccccc3)=C2O)ccc1O category_label="label 0"
compound_structure=O=C(C1=C(O)/C(=C/c2ccc(O)c(Cl)c2)CCC1)c1ccccc1 category_label="label 0"

Please state the recorded outcome for this compound: "O=C(C1=C(O)/C(=C/c2cccc(Cl)c2)CCC1)c1ccccc1"
label 0

Please state the recorded outcome for this compound: "Cc1cccc(/C=C2\CCCC(C(=O)c3ccccc3)=C2O)c1"
label 1

Please state the recorded outcome for this compound: "O=C(C1=C(O)/C(=C/c2cccc(OCCN3CCCCC3)c2)CCC1)c1ccccc1"
label 1

====

For reference, IC50 measured on Cholinesterase (Equus caballus):
Your answer is read as nM, so omit the unit and give the number.

Consider the following illustrative entries.
compound_structure=O=C(C1=C(O)/C(=C/c2ccc(OCCN3CCCC3)cc2)CCC1)c1ccccc1 recorded_value=2300
compound_structure=O=C(C1=C(O)/C(=C/c2ccc(OCCN3CCCCC3)cc2)CCC1)c1ccccc1 recorded_value=2700
compound_structure=O=C(C1=C(O)/C(=C/c2cccc(OCCN3CCCC3)c2)CCC1)c1ccccc1 recorded_value=600
compound_structure=O=C(C1=C(O)/C(=C/c2cccc(OCCN3CCCCC3)c2)CCC1)c1ccccc1 recorded_value=1400
compound_structure=O=C(C1=C(O)/C(=C/c2ccc(O)c(O)c2)CCC1)c1ccccc1 recorded_value=6500

Find IC50 for "O=C(C1=C(O)/C(=C/c2ccc(O)c(Cl)c2)CCC1)c1ccccc1" on Cholinesterase (Equus caballus) and write it down.
Sequence (P81908 whole entry): as the sequence (P81908 whole entry) above
10600

Find IC50 for "O=C(C1=C(O)/C(=C/c2ccc(O)c(Br)c2)CCC1)c1ccccc1" on Cholinesterase (Equus caballus) and write it down.
4700
